In this section, each of the compounds is paired with its reported IC50.
- Tested Target: human ER-β (Homo sapiens, UniProt Q92731)
- Construct: stably transfected with expression vectors for human full-length ER-α or ER-β; expressed in transfected cells
- Sequence (Q92731 whole entry): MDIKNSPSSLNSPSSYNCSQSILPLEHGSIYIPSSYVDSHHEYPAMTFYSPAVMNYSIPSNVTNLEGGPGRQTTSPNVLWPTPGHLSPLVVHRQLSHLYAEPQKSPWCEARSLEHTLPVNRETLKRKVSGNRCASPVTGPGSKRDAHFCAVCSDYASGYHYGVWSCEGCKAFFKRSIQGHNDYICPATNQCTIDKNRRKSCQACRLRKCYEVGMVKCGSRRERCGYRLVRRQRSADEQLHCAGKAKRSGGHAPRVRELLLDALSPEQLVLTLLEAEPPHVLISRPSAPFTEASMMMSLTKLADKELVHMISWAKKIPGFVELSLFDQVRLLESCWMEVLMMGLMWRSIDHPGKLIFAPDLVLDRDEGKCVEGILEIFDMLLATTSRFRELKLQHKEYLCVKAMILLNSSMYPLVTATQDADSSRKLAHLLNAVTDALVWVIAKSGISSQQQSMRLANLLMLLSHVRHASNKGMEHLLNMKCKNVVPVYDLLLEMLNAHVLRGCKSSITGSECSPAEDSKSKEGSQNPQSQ
- Procedure Text: Inhibition of IL-6 release from U-2 OS osteosarcoma cells stably transfected with human ER-β
- Format: cell-based
- Test Parameters: IL-6 production (ELISA) after 2.5 ng/ml TNFα and 1 ng/ml IL-1β stimulation, 24 h; compound 0.01–1000 nM; vehicle = 100%; read-out: IC50 (nM) U2 OS (ER-β)
- Procedure: Illustrative Benzopyranone Compounds were tested for their ability to inhibit IL-6 release from human U-2 OS osteosarcoma cells stably transfected with human ER-α or ER-β. […] Cells were plated into 96-well plates at a density of 80,000 cells per well in phenol red-free media with charcoal-stripped fetal calf serum. […] Twenty-four hours later the media supernatant was analyzed for cytokine production (IL-6) using commercially available ELISA kits following the manufacturer's instructions. […]

Please review the entries below; each comes with its answer.
- Compound: "Cc1cc2c(Cc3ccc(OCCN4CCCC4)cc3)c(-c3ccc(C(F)(F)F)cc3)c(=O)oc2cc1O"
  IC50: "> 1000 nM"
- Compound: "CC(O)c1cc2c(Cc3ccc(OCCN4CCCC4)cc3)c(-c3ccc(C(F)(F)F)cc3)c(=O)oc2cc1O (centres unmarked)"
  IC50: "> 1000 nM"
- Compound: "O=c1oc2cc(O)c(Br)cc2c(Cc2ccc(OCCN3CCCC3)cc2)c1-c1ccc(C(F)(F)F)cc1"
  IC50: "> 1000 nM"
- Compound: "CC(=O)c1cc2c(Cc3ccc(OCCN4CCCC4)cc3)c(-c3ccc(C(F)(F)F)cc3)c(=O)oc2cc1O"
  IC50: "> 1000 nM"
- Compound: "CC(=O)c1c(O)ccc2c(Cc3ccc(OCCN4CCCC4)cc3)c(-c3ccc(C(F)(F)F)cc3)c(=O)oc12"
  IC50: "< 1000 nM"

[ask] Quick one: IC50 for CC(=O)c1c(O)ccc2c(Cc3ccc(OCCN4CCCC4)cc3)c(-c3ccc(Cl)cc3Cl)c(=O)oc12 ?
[reply] < 1000 nM

[ask] Now consider Cc1c(O)ccc2c(Cc3ccc(OCCN4CCCC4)cc3)c(-c3ccc(Cl)cc3Cl)c(=O)oc12 .
[reply] < 1000 nM

====

- Tested on: MCF-7 breast cancer cells
- Procedure Text: Inhibition of 17β-estradiol-dependent MCF-7 breast cancer cell proliferation (3H-thymidine incorporation)
- Format: cell-based
- Test Parameters: Homo sapiens, MCF7; with 0.1 nM 17β-estradiol, 72 h, then 3H-thymidine 4 h; compound 0.1–1000 nM
Measured Property: IC50 (nM)

- Smiles Structure: "Cc1c(O)ccc2c(Cc3ccc(OCCN4CCCC4)cc3)c(-c3ccc(C(F)(F)F)cc3)c(=O)oc12"
  Tested Target: "MCF-7 breast cancer cells"
  Measured Property: "IC50"
  Measured Result: 235
- Smiles Structure: "CC(=O)c1c(O)ccc2c(Cc3ccc(OCCN4CCCC4)cc3)c(-c3ccc(Cl)cc3Cl)c(=O)oc12"
  Tested Target: "MCF-7 breast cancer cells"
  Measured Property: "IC50"
  Measured Result: 112
- Smiles Structure: "Cc1cc2c(Cc3ccc(OCCN4CCCC4)cc3)c(-c3ccc(C(F)(F)F)cc3)c(=O)oc2cc1O"
  Tested Target: "MCF-7 breast cancer cells"
  Measured Property: "IC50"
  Measured Result: 59.5
- Smiles Structure: "CC(=O)c1c(O)ccc2c(Cc3ccc(OCCN4CCCC4)cc3)c(-c3ccc(C(F)(F)F)cc3)c(=O)oc12"
  Tested Target: "MCF-7 breast cancer cells"
  Measured Property: "IC50"
  Measured Result: 185

A: Cc1c(O)ccc2c(Cc3ccc(OCCN4CCCC4)cc3)c(-c3ccc(Cl)cc3Cl)c(=O)oc12
B: Cc1cc2c(Cc3ccc(OCCN4CCCC4)cc3)c(-c3ccc(Cl)cc3Cl)c(=O)oc2cc1O
[ask] Dear colleague, could you let me know whether A or B has the lower recorded IC50? Thanks. Select an item and report its label.
[reply] B
